- protocol: solvent given as SMILES
- details: in CC(C)=O
Recorded emission maximum, one value per entry.
measuredEndpoint: emission maximum (nm)

>>> observed("O=C(N/N=C/c1ccccc1O)c1ccccc1")
426
>>> observed("CC(C)(C)c1ccc2c(c1)c1cc(C(C)(C)C)ccc1n2-c1ccc(-c2nc(-c3ccc(-n4c5ccc(C(C)(C)C)cc5c5cc(C(C)(C)C)ccc54)cc3)nc(-c3ccc(P(=O)(c4ccccc4)c4ccccc4)cc3)n2)cc1")
525.92
>>> observed("CCCCCCCCC1(CCCCCCCC)c2cc(C=O)ccc2-c2ccc(/C=C/c3ccc(N(c4ccccc4)c4ccccc4)cc3)cc21")
481
>>> observed("CCCCC1(CCCC)c2cc(-c3ccc(C=C4C(=O)c5ccccc5C4=O)cc3)ccc2-c2ccc(-c3ccc(C=C4C(=O)c5ccccc5C4=O)cc3)cc21")
564
>>> observed("c1ccc(C2CCN3COc4c5ccccc5c5c6c7c(c2c3c46)C(c2ccccc2)CCN7CO5)cc1 (stereo unspecified)")
603
>>> observed("C(=C\\c1cc(/C=C/c2ccc(N(c3ccccc3)c3ccccc3)cc2)nc(/C=C/c2ccc(N(c3ccccc3)c3ccccc3)cc2)n1)/c1ccc(N(c2ccccc2)c2ccccc2)cc1")
555
>>> observed("CCN(CC)c1ccc(/C=C/c2ccc(-c3ccc(/C=C/c4ccc(N(CC)CC)cc4)s3)s2)cc1")
570
>>> observed("CCCCN(c1ccccc1)c1ccc2c(c1)C(CC)(CC)c1cc(/C=C/c3ccc(/C=C(\\C#N)C(=O)O)s3)ccc1-2")
576
>>> observed("O=Cc1cc(C=O)c2ccc3c(N4CCCCC4)cc(N4CCCCC4)c4ccc1c2c43")
598
>>> observed("O=Cc1c(O)c(-c2nc3ccccc3s2)cc2ccccc12")
507
>>> observed("CC1=CC(c2ccc3cc(N(C)C)ccc3c2)=[O+][B-](F)(F)O1")
492
>>> observed("CCCCCN(c1ccccc1)c1ccc2c(c1)C(CC)(CC)c1cc(/C=C/c3ccc(/C=C(\\C#N)C(=O)O)s3)ccc1-2")
574
>>> observed("O=C1/C(=C\\c2ccc(N(c3ccccc3)c3ccccc3)cc2)S(=O)(=O)c2ccccc21")
540
>>> observed("C#CCNC1=C2C(C)=CC(C)=[N+]2[B-](F)(F)n2c(C)cc(C)c21")
496
>>> observed("CON(OC)c1cc2c3cc(-c4c(C)cc(C)cc4C)cc4c5cc(-c6c(C)cc(C)cc6C)cc6c7cc(B(c8c(C)cc(C)cc8C)c8c(C)cc(C)cc8C)cc8c9cc(-c%10c(C)cc(C)cc%10C)cc%10c%11cc(-c%12c(C)cc(C)cc%12C)cc%12c(c1)c2c1c(c43)c(c65)c(c78)c(c9%10)c1c%11%12")
615
>>> observed("CCCCCCc1ccsc1-c1ccc(-c2sc(C(=O)O)cc2CCCCCC)s1")
468
>>> observed("COc1ccc(/C=C/c2cc(/C=C/c3ccc(OC)cc3)nc(/C=C/c3ccc(N(c4ccccc4)c4ccccc4)cc3)n2)cc1")
572
>>> observed("CN(C)CCN(Cc1c2ccccc2cc2ccccc12)c1ccc([N+](=O)[O-])cc1")
387
>>> observed("Cn1c(=O)c(/N=N/c2ccc(Nc3ccc([N+](=O)[O-])cc3S(=O)(=O)O)cc2)c(O)c2ccccc21")
617
>>> observed("COC(=O)/C=C/c1ccc2ccc3cccc4ccc1c2c34")
438
>>> observed("Fc1ccc(-c2nc3n(c2-c2ccncc2)CCS3)cc1")
418
>>> observed("CCN(CC)c1ccc2cc(/C=C/c3cccc[n+]3CCCS(=O)(=O)[O-])c(=O)oc2c1")
639
>>> observed("CCCCNc1ccc(NCCCC)c2c1C(=O)c1ccccc1C2=O")
671
>>> observed("COc1ccc(C(=O)/C=C/c2ccc(N(C)C)cc2)cc1OC")
511
>>> observed("Cc1cc(C)c(B(c2ccccc2N(c2ccccc2)c2ccccc2)c2c(C)cc(C)cc2C)c(C)c1")
532.95
>>> observed("CN(C)c1ccc2nc3c(cc2c1)c(-c1ccccc1)nn3-c1ccccc1")
552.79

Data origin: the Deep4Chem optical property database
